target: canine FcRn complex (FcRn-alpha subunit and beta-microglobulin), His-tagged, biotin labeled (canine); experiment: SPR (Biacore), biotin-FcRn captured on SA surface, IgG flowed over, pH 6, 15 C
REPORTED ENDPOINT: pKd
The read-out pKd is expressed as -log10 of concentration in moles per litre.

BINDER	pKd
canine IgGB (65) mAb with mutation Y436G (antibody, part only; not given: Variable domains, not shown: another chain or arm of the molecule) constant: ASTTAPSVFPLAPSCGSTSGSTVALACLVSGYFPEPVTVSWNSGSLTSGVHTFPSVLQSSGLYSLSSMVTVPSSRWPSETFTCNVAHPASKTKVDKPVPKRENGRVPRPPDCPKCPAPEMLGGPSVFIFPPKPKDTLLIARTPEVTCVVVDLDPEDPEVQISWFVDGKQMQTAKTQPREEQFNGTYRVVSVLPIGHQDWLKGKQFTCKVNNKALPSPIERTISKARGQAHQPSVYVLPPSREELSKNTVSLTCLIKDFFPPDIDVEWQSNGQQEPESKYRTTPPQLDEDGSYFLYSKLSVDKSRWQRGDTFICAVMHEALHNHGTQESLSHSPGK	8.01

Look up pKd: canine IgGB (65) mAb with mutation A426E (antibody, part only; not given: Variable domains, not shown: another chain or arm of the molecule) constant: ASTTAPSVFPLAPSCGSTSGSTVALACLVSGYFPEPVTVSWNSGSLTSGVHTFPSVLQSSGLYSLSSMVTVPSSRWPSETFTCNVAHPASKTKVDKPVPKRENGRVPRPPDCPKCPAPEMLGGPSVFIFPPKPKDTLLIARTPEVTCVVVDLDPEDPEVQISWFVDGKQMQTAKTQPREEQFNGTYRVVSVLPIGHQDWLKGKQFTCKVNNKALPSPIERTISKARGQAHQPSVYVLPPSREELSKNTVSLTCLIKDFFPPDIDVEWQSNGQQEPESKYRTTPPQLDEDGSYFLYSKLSVDKSRWQRGDTFICEVMHEALHNHYTQESLSHSPGK
8.32
